B1: HDV Ribozyme (parent)
chain: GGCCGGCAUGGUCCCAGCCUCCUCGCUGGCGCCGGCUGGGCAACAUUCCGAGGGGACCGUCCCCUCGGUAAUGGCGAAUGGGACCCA

# Variants of: B1
# method.description: self-cleavage, relative activity (ratio to wild type); higher = more cleavage; co-transcriptional
Entries are grouped by self-cleavage into these classes: lower band = under 0.1, central band = from 0.1 up to 0.5, upper band = 0.5 and over

Past entries and their recorded results:
1) GGCCGGCAUGGUCCCAGCCUCCUCGCUGGCGCCGGCUGGGCAACAUUCCGAGGGGACCGUCCUCUCGGUAAUGGCGAAUGGGACCGA [C63U C86G] ... upper band
2) GGCCGGCAUGGUCCCAGCCGUCUCGCUGGCGCCGGCUGGGCAACAUUCCGAGGGGACCGUCCCCUCGGUAAUGGCGAAUGGGACCCA [U20G C21U] ... central band
3) GGCCGGCAUGGUCCCAGCCUCCUCGCUGGCGCCGGCUGGGCAACAUUCCGAGGGGACCGUCCCCUCGUUAAUGGCGAAUGGGACCCA [G68U] ... upper band
4) GGCCGGCAUGGUCCCAGCCUCCUCGCUGGCGCCGGCCGGGCAACAUUCCGAGGGGACCGUCGCCUCGGUAAUGGCGAAUGGGACCCA [U37C C62G] ... lower band
5) GGCCGGCAUGGUCCCAGCCUCCUCGCUGGCGCCGGCUGGGCAACAUUCCGAGGGGACCGUCCCCUCGGUAAUGUCGAAGGGGACCCA [G74U U79G] ... central band
6) GGCCGGCAUGAUCCCAGCCUCCUCGCUGGCGCCGGCUGGGCAGCAUUCCGAGGGGACCGUCCCCUCGGUAAUGGCGAAUGGGACCCA [G11A A43G] ... lower band
7) GGCCGGCAGGGUCCCAGCCUCCUCGCUGGCGCCGGCUGGGCAACAUUCCGAGGGGACCGUCCCCUCGGUAAUGCCGAAUGGGACCCA [U9G G74C] ... central band
8) GGCCGGCAUGGUCCCAGCCUCCUCGCUGGCGCCGGCUGGGCAACAUUCCGAGGGGACCGUCCCCUCGGCAAUGCCGAAUGGGACCCA [U69C G74C] ... lower band
9) GGCCGGCAUGGUCCCAGCCUCCUCGCUGGCGGCGGCUGGGCAACAUUCCGAGGGGACCGUCCCCUCGGUAAUGGCGAAUGGGACACA [C32G C85A] ... lower band
10) GGCCGGCAUGGUCCCAGCCUCCUAGCUUGCGCCGGCUGGGCAACAUUCCGAGGGGACCGUCCCCUCGGUAAUGGCGAAUGGGACCCA [C24A G28U] ... lower band

Lookup: // bin(item) where item = GGCCGGCAUGGUCCCAGCCUCCUCGCUGGAGCCGGUUGGGCAACAUUCCGAGGGGACCGUCCCCUCGGUAAUGGCGAAUGGGACCCA [C30A C36U]
Found: central band

Lookup: // bin(item) where item = GGCCGGCAUGGUCCCAGCCUUCUCGCUGGCGCCGGCUGGGCAACAUUCCGAUGGGACCGUCCCCUCGGUAAUGGCGAAUGGGACCCA [C21U G52U]
Found: central band

Lookup: // bin(item) where item = GGCCGGCGUGGUCCCAGCCUCCUCGCUGGCGCCGGCUGGGCAACAUUCCGAGGGGACCGUCCCCUCGGUAAUGGCGAAUGGGACCUA [A8G C86U]
Found: upper band

Lookup: // bin(item) where item = GGCCGGGAUUGUCCCAGCCUCCUCGCUGGCGCCGGCUGGGCAACAUUCCGAGGGGACCGUCCCCUCGGUAAUGGCGAAUGGGACCCA [C7G G10U]
Found: lower band

Lookup: // bin(item) where item = GGCCGGCAUGGUCCCAGCCUCCUCGCUGGCGCCGGCUGGGCGACCUUCCGAGGGGACCGUCCCCUCGGUAAUGGCGAAUGGGACCCA [A42G A45C]
Found: central band

Lookup: // bin(item) where item = GGCCGGCAUGGUCCCAGCCUCCUCGCUGGCGCCGGCUGGGCAACAUACCGAGGGGACCGUCCCCUCGGUAAUGGCGAAUGGGGCCCA [U47A A83G]
Found: upper band

Lookup: // bin(item) where item = GGCCGGCAUGGUCCCAACCUCCUCGCUGGCGCCGGCUGGGCAACAUUCCGAGGGGACCGUCCCCUCGGUAAUGGCGAAUGGGACCUA [G17A C86U]
Found: upper band
